Reported refractive index values follow for various compounds
test: refractive index (Na D-line) (dimensionless); conditions: 288.15 K; 101.33 kPa; Liquid; Standard Abbe refractometry
± gives the expanded uncertainty stated by the source.

COMPOUND	refractive index
Cc1ccc(C)cc1 [1,4-dimethylbenzene]	1.49836 ± 0.00031
CCc1ccccc1 [ethylbenzene]	1.49834 ± 0.00031

[in] Please give the measured refractive index for this compound: C=C[Si]1(C)O[Si](C)(C=C)O[Si](C)(C=C)O[Si](C)(C=C)O1 (stereo not given) [2,4,6,8-tetramethyl-2,4,6,8-tetravinylcycloterasiloxane]
[out] 1.43674 ± 0.00033

[in] So what's the measured refractive index for this one? Cc1cccc(C)c1 [1,3-dimethylbenzene]
[out] 1.49969 ± 0.00031

[in] Need refractive index, item Cc1ccccc1C [1,2-dimethylbenzene]
[out] 1.50775 ± 0.00031

* * *

settings: 318.15 K; 101 kPa; Liquid; Vibrating tube method
READOUT NAME: mass density (kg/m3)
Use kg/m3 as the unit, but write only the number.

The examples below pair each entry with its known result.
MOLECULE	READOUT NAME	OBSERVED VALUE
Cc1ccccc1C [1,2-dimethylbenzene]	mass density	858.81
Cc1cccc(C)c1 [1,3-dimethylbenzene]	mass density	842.58
Cc1ccc(C)cc1 [1,4-dimethylbenzene]	mass density	839.21
CCc1ccccc1 [ethylbenzene]	mass density	844.87

Field: next molecule
[in] Would you mind telling me what mass density value was observed for C=C[Si]1(C)O[Si](C)(C=C)O[Si](C)(C=C)O[Si](C)(C=C)O1 (stereo not given) [2,4,6,8-tetramethyl-2,4,6,8-tetravinylcycloterasiloxane] ?
[out] 962.14

* * *

experiment: refractive index (Na D-line) (dimensionless); φn = volume fraction of the nth substance listed; details: 308.15 K; 101 kPa; Liquid; Standard Abbe refractometry; φ2 = 0
Numbers after ± are expanded uncertainties.
READOUT NAME: refractive index

As a guide, the following entries are already answered.
>>> df
                                   compound      readout_name     observed_value
0  CCc1ccccc1 [ethylbenzene] + C=C[Si]1(C)O[Si](C)(C=C)O[Si](C)(C=C)O[Si](C)(C=C)O1  refractive index  1.48747 ± 0.00031
1  Cc1ccc(C)cc1 [1,4-dimethylbenzene] + C=C[Si]1(C)O[Si](C)(C=C)O[Si](C)(C=C)O[Si](C)(C=C)O1  refractive index  1.48743 ± 0.00031
2  Cc1ccccc1C [1,2-dimethylbenzene] + C=C[Si]1(C)O[Si](C)(C=C)O[Si](C)(C=C)O[Si](C)(C=C)O1  refractive index  1.49724 ± 0.00031

Next compound, refractive index to be filled in.
[in] So what does the record say about refractive index for Cc1cccc(C)c1 [1,3-dimethylbenzene] + C=C[Si]1(C)O[Si](C)(C=C)O[Si](C)(C=C)O[Si](C)(C=C)O1 ?
[out] 1.48894 ± 0.00031
